# ASSAY: Drug uptake in C57BL/6N mouse whole blood at 3 mg/kg, po measured at 3 hrs
# Format: ADME, organism-based
# ASSAY SETUP: read-out: Drug uptake

{"COMPOUND SMILES": "CCOc1cc(CN2CCC3(CC2)CC(=O)N(c2ccc(C(=O)O)cc2)C3)cc(OCC)c1-c1ccc(F)cc1.O=C(O)C(F)(F)F", "concentration at 3 h": "0.351 µM"}

----------
# ASSAY: Half life in rhesus monkey at […], iv or 1 mg/kg, po
# Assay type: ADME, organism-based, Macaca mulatta
# ASSAY SETUP: in vivo

{"COMPOUND SMILES": "CCOc1cc(CN2CCC3(CC2)CC(=O)N(c2ccc(C(=O)O)cc2)C3)cc(OCC)c1-c1ccc(F)cc1.O=C(O)C(F)(F)F", "UNIT ABBREVIATION": "h", "half-life": 2}

----------
# ASSAY: Drug uptake in C57BL/6N mouse whole blood at 0.1 mg/kg, po measured at 3 hrs
# Format: ADME, organism-based
# ASSAY SETUP: read-out: Drug uptake

{"COMPOUND SMILES": "CCOc1cc(CN2CCC3(CC2)CC(=O)N(c2ccc(C(=O)O)cc2)C3)cc(OCC)c1-c1ccc(F)cc1.O=C(O)C(F)(F)F", "concentration at 3 h / nM": 11}

----------
# EXPERIMENTAL SYSTEM: Somatostatin receptor type 2 (Homo sapiens, UniProt P30874)
# Sequence (P30874 whole entry): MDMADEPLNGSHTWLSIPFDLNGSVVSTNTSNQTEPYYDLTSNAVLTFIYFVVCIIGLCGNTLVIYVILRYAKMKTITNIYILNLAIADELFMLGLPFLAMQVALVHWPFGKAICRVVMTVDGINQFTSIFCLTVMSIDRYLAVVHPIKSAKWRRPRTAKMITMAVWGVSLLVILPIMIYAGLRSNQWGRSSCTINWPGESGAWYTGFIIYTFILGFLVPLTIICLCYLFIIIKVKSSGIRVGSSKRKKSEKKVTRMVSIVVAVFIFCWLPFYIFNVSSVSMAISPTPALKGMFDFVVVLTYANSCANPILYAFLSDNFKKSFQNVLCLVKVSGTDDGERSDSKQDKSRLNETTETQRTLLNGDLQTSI
# ASSAY: Antagonist activity at human SSTR2 expressed in CHO-K1 cell membranes

{"COMPOUND SMILES": "CCOc1cc(CN2CCC3(CC2)CC(=O)N(c2ccc(C(=O)O)cc2)C3)cc(OCC)c1-c1ccc(F)cc1.O=C(O)C(F)(F)F", "IC50": "> 10 µM"}

----------
# ASSAY: Oral bioavailability in mouse
# Type: ADME, organism-based
# ASSAY SETUP: in vivo
Reported bioavailability values for a set of compounds

{"COMPOUND": "CCOc1cc(CN2CC[C@H]3C(Nc4nc5ccc(C(=O)O)cc5o4)CC[C@H]32)cc(OCC)c1-c1ccc(F)cc1 (relative stereo)", "bioavailability [%]": 48}
{"COMPOUND": "CCOc1cc(CN2CCC(C3CCN(S(=O)(=O)c4ccccc4)CC3)CC2)cc(OCC)c1-c1ccc(F)cc1", "bioavailability [%]": 13}

----------
# EXPERIMENTAL SYSTEM: Somatostatin receptor type 5 (Homo sapiens, UniProt P35346)
# Sequence (P35346 whole entry): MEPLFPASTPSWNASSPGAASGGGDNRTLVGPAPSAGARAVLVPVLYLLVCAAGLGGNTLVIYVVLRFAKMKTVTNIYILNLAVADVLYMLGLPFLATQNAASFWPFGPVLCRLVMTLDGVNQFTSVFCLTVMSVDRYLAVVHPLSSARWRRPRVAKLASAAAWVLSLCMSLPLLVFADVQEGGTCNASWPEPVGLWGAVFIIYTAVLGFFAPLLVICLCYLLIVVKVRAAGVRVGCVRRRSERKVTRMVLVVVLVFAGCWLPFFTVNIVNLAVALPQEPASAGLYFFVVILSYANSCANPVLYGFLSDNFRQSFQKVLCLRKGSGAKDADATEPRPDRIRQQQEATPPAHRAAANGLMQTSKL
# ASSAY: Displacement of (3-125I-Tyr11)-SRIF-28 from human SSTR5 expressed in CHO-K1 cell membranes by filtration binding assay
QUANTITY NAME: IC50 (nM)

{"MOLECULE": "CCOc1cc(CN2CCC(NC(=O)c3cncc(C)c3)CC2)cc(OCC)c1-c1ccc(F)cc1", "QUANTITY NAME": "IC50", "OBSERVED": 1.3}
{"MOLECULE": "CCOc1cc(CN2CCC(COc3cccc4cccnc34)CC2)cc(OCC)c1-c1ccc(F)cc1", "QUANTITY NAME": "IC50", "OBSERVED": 2.9}
{"MOLECULE": "CCOc1cc(CN2CCC3(CC2)CC(Cc2ccc(F)cc2)C(=O)O3)cc(OCC)c1-c1ccc(F)cc1 (racemic)", "QUANTITY NAME": "IC50", "OBSERVED": 1.6}
{"MOLECULE": "CCOc1cc(CN2CCC3(CC2)NC(=O)NC3=O)cc(OCC)c1-c1ccc(F)cc1", "QUANTITY NAME": "IC50", "OBSERVED": 83}
{"MOLECULE": "CCOc1cc(CN2CCC3(CC2)CCN(S(=O)(=O)c2cccnc2)CC3)cc(OCC)c1-c1ccc(F)cc1", "QUANTITY NAME": "IC50", "OBSERVED": 13}
{"MOLECULE": "CCOc1cc(CN2CC[C@H]3C(Nc4nc5ccc(C(=O)O)cc5o4)CC[C@H]32)cc(OCC)c1-c1ccc(F)cc1 (relative stereo)", "QUANTITY NAME": "IC50", "OBSERVED": 2.5}
{"MOLECULE": "CCOc1cc(CN2CCC(c3ncc(-c4ccc(F)cc4)[nH]3)CC2)cc(OCC)c1-c1ccc(F)cc1", "QUANTITY NAME": "IC50", "OBSERVED": 7.6}
{"MOLECULE": "CCOc1cc(CN2CCC(Oc3nccc(Cl)n3)CC2)cc(OCC)c1-c1ccc(F)cc1", "QUANTITY NAME": "IC50", "OBSERVED": 21}
{"MOLECULE": "CCOc1cc(CN2CCC(C3CCN(S(=O)(=O)c4ccccc4)CC3)CC2)cc(OCC)c1-c1ccc(F)cc1", "QUANTITY NAME": "IC50", "OBSERVED": 0.7}

----------
# EXPERIMENTAL SYSTEM: Prostaglandin D2 receptor (Homo sapiens)
# Sequence (Q13258 whole entry): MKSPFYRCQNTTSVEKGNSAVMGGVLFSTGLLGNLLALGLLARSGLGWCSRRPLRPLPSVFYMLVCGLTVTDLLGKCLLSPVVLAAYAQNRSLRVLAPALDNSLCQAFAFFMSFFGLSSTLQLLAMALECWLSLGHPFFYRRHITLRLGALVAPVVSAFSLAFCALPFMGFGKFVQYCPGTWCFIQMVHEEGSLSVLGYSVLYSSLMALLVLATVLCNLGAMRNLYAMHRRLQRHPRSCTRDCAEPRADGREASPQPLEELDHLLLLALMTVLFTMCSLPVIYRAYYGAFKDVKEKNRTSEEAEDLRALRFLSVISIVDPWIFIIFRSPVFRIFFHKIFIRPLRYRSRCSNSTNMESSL
# ASSAY: Inhibition of prostanoid DP receptor (unknown origin)
pIC50: −log10 of the molar value.
QUANTITY NAME: pIC50

{"COMPOUND SMILES": "CCOc1cc(CN2CCC3(CC2)CC(=O)N(c2ccc(C(=O)O)cc2)C3)cc(OCC)c1-c1ccc(F)cc1.O=C(O)C(F)(F)F", "EXPERIMENTAL SYSTEM": "Prostaglandin D2 receptor (Homo sapiens)", "OBSERVED": 5.52}

----------
# ASSAY: Oral bioavailability in dog at 1 mg/kg
# Type: ADME, organism-based, Canis lupus familiaris
# ASSAY SETUP: in vivo
QUANTITY NAME: bioavailability

{"COMPOUND SMILES": "CCOc1cc(CN2CCC3(CC2)CC(=O)N(c2ccc(C(=O)O)cc2)C3)cc(OCC)c1-c1ccc(F)cc1.O=C(O)C(F)(F)F", "OBSERVED": "72%"}

----------
# ASSAY: Clearance in rat at 1 mg/kg, iv or 2 mg/kg, po
# Assay type: ADME, organism-based
# ASSAY SETUP: in vivo

{"COMPOUND SMILES": "CCOc1cc(CN2CCC3(CC2)CC(=O)N(c2ccc(C(=O)O)cc2)C3)cc(OCC)c1-c1ccc(F)cc1.O=C(O)C(F)(F)F", "UNIT ABBREVIATION": "mL/min/kg", "clearance": 15.2}

----------
# ASSAY: Clearance in rhesus monkey at […], iv or 1 mg/kg, po
# Assay type: ADME, organism-based, Macaca mulatta
# ASSAY SETUP: in vivo

{"COMPOUND SMILES": "CCOc1cc(CN2CCC3(CC2)CC(=O)N(c2ccc(C(=O)O)cc2)C3)cc(OCC)c1-c1ccc(F)cc1.O=C(O)C(F)(F)F", "UNIT ABBREVIATION": "mL/min/kg", "clearance": 11.8}

----------
# EXPERIMENTAL SYSTEM: Somatostatin receptor type 3 (Homo sapiens, UniProt P32745)
# Sequence (P32745 whole entry): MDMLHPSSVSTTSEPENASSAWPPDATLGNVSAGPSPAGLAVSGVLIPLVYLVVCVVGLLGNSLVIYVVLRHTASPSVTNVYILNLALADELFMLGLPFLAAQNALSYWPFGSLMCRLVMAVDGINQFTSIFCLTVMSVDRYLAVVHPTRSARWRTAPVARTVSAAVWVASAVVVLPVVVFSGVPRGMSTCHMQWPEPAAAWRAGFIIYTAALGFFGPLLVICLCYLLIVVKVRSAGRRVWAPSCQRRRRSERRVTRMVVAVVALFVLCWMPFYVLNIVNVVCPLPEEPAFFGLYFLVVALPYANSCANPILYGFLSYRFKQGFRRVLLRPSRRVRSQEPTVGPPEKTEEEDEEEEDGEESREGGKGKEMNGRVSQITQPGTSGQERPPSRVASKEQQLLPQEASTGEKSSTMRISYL
# ASSAY: Antagonist activity at human SSTR3 expressed in CHO-K1 cell membranes
pIC50: −log10 of the molar value.

{"COMPOUND SMILES": "CCOc1cc(CN2CCC3(CC2)CC(=O)N(c2ccc(C(=O)O)cc2)C3)cc(OCC)c1-c1ccc(F)cc1.O=C(O)C(F)(F)F", "CENSORING QUALIFIER": "<", "pIC50": 5.00}
{"COMPOUND SMILES": "CCOc1cc(CN2CCC(c3ncc(-c4ccc(F)cc4)[nH]3)CC2)cc(OCC)c1-c1ccc(F)cc1", "CENSORING QUALIFIER": "=", "pIC50": 6.92}

----------
# ASSAY: Half life in dog at […], iv or 1 mg/kg, po
# Type: ADME, organism-based, Canis lupus familiaris
# ASSAY SETUP: in vivo
QUANTITY NAME: half-life

{"COMPOUND SMILES": "CCOc1cc(CN2CCC3(CC2)CC(=O)N(c2ccc(C(=O)O)cc2)C3)cc(OCC)c1-c1ccc(F)cc1.O=C(O)C(F)(F)F", "OBSERVED": "16.5 h"}

----------
# ASSAY: Drug uptake in C57BL/6N mouse whole blood at 1 mg/kg, po measured at 3 hrs
# Format: ADME, organism-based
# ASSAY SETUP: read-out: Drug uptake

{"COMPOUND SMILES": "CCOc1cc(CN2CCC3(CC2)CC(=O)N(c2ccc(C(=O)O)cc2)C3)cc(OCC)c1-c1ccc(F)cc1.O=C(O)C(F)(F)F", "concentration at 3 h (nM)": 131}
